assay: RPMI8226 myeloma cell viability, profiling panel, resazurin fluorescence, basal, 24 h, PK04 Diversity Set (AID 1180); conditions: higher = more signal;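 further: RPMI8826 multiple myeloma cell line at 5000 cells per well; test concentration not given here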
Reported z-score is given for each of the following compounds.
Answer with a bare number; do not write a unit.

Recorded z-score, per entry:
CC(C)C(=C=CC[C@@H](O)c1ccccc1OCCO)C[C@@H](O)c1ccccn1 : 0.221
COCC(=C=CC[C@@H](O)c1ccc(CO)o1)CCO : 0.529
CC(C)N1C(=O)[C@@]2(c3ccc([N+](=O)[O-])cc3)CC(=O)N(CC34CC5CC(CC(C5)C3)C4)[C@@H]2c2ccc(CO)cc21 : -0.629
CCCN1C(=O)[C@@]2(CCC(=O)OC(C)(C)C)N=C(c3ccc(OCCCO)cc3)O[C@H]2c2ccccc21 : -3.16
O=c1cccc(C=Cc2ccccc2)o1 : -0.0628
COCCOC(=O)N1C(=O)[C@@]2(c3cc(C#CCCO)ccc31)[C@H](c1ccccc1OCCO)N1[C@H](c3ccccc3)[C@H](c3ccccc3)OC(=O)[C@H]1[C@@H]2C(=O)N1CCN(c2ncccn2)CC1 : -0.803

Sure, the documented z-score for O=C1O[C@H](c2ccccc2)[C@H](c2ccccc2)N2[C@H]1[C@@H](C(=O)NC[C@H](O)c1ccccc1)[C@]1(C(=O)Nc3ccc(C#CCCO)cc31)[C@H]2c1ccc(O)cc1 is -0.186

z-score reading for O=c1cccc(CCc2ccccc2)o1 : -0.753

====

Below, each entry is listed with its recorded z-score.
molecular target: Homeobox protein Hox-A13 (Mus musculus); experiment: inhibitors of HoxA13-DNA binding, primary screen, biochemical, fluorescence polarization, labeled oligonucleotide (AID 1185); conditions: 15 min, higher = more signal, called active from +8 up or from −8 down
The source made the active and inactive calls.

COC(=O)C(CC#Cc1ccc2c(c1)[C@]1(C(=O)N2)[C@H](c2ccc(OCCO)cc2)N2[C@H](c3ccccc3)[C@H](c3ccccc3)OC(=O)[C@H]2[C@@H]1C(=O)NC[C@H](O)c1ccccc1)C(=O)OC : -0.715 (inactive)
O=C1N(CCS(=O)(=O)c2ccccc2)Cc2ccccc2C[C@]12N=C(c1ccc(OCCCO)cc1)O[C@@H]2c1ccccc1 : -2.61 (inactive)
CCCC[C@H]1OB(O)C[C@H]2C1=C(C)C[C@H]1C(=O)N(Cc3ccccc3)C(=O)[C@H]12 : -7.36 (inactive)
COC(=O)[C@@]1(Cc2ccccc2)[C@H]2c3cc(C(=O)N(C)C)n(Cc4c(-c5ccccc5)noc4C)c3C[C@H]2CN1C(=O)c1ccccc1 : -2.59 (inactive)
CCOC(=O)C1=CCC(c2ccc(C#N)cc2)N(S(=O)(=O)c2ccc(C)cc2)C1 (centres undefined) : -3.74 (inactive)
CCCNC(=O)[C@@H]1c2ccccc2C(=O)N(Cc2ccccc2)[C@H]1c1ccc(CO)cc1 : -2.71 (inactive)

// recorded z-score for CCOC(=O)C1=CC[C@@H](c2ccccc2Cl)N(S(=O)(=O)c2ccc(C)cc2)C1 : -2.78 (inactive)

Documented z-score of Cc1ccc(S[C@]2(C(=O)NCCN3CCOCC3)CC(=O)N(Cc3cc(C(F)(F)F)cc(C(F)(F)F)c3)[C@@H]2c2ccc(CO)cc2I)cc1 : -2.98 (inactive)

Query C=CCNC(=O)[C@@H]1[C@H]2C(=O)O[C@H](c3ccccc3)[C@H](c3ccccc3)N2[C@H](c2ccc(OCCO)cc2)[C@@]12C(=O)Nc1ccccc12 yields z-score of -4.6 (inactive)

Per the record, COCCOC(=O)N1C(=O)[C@@]2(c3ccccc31)[C@H](C(=O)Nc1nc3ccccc3s1)[C@H]1C(=O)O[C@H](c3ccccc3)[C@H](c3ccccc3)N1[C@@H]2c1ccc(OCCO)cc1 has z-score of 0.34 (inactive)

Looking up O=C1N(CCS(=O)(=O)c2ccccc2)c2ccccc2C[C@@]12COC(c1ccc(OCCCO)cc1)=N2 , I found its z-score recorded as -4.69 (inactive)

====

As shown below, each of these compounds has a reported composite z-score value.
target: Dihydroorotate dehydrogenase (quinone), mitochondrial (Plasmodium falciparum (isolate 3D7)); assay: PfDHODH enzyme inhibitors, primary screen, biochemical, C-terminal His tag, absorbance 600 nm (AID 1175); conditions: DCIP absorbance 600 nm, higher = more signal, called active from +8 up or from −8 down;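 further: recombinant parasite enzyme with a five histidine tag at its C terminus; test concentration not given here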
Answer using only a numeral; do not append any unit.

[N-]=[N+]=NCc1ccccc1C[C@@]1(C(=O)NCC(O)CO)N=C(c2ccc(OCCCO)cc2)O[C@@H]1c1ccccc1CN=[N+]=[N-] (stereo partly specified) : 0.34

In plain terms, COC(=O)[C@]1(Cc2ccccc2N=[N+]=[N-])N=C(c2ccc(OCCCO)cc2)O[C@@H]1c1ccccc1N=[N+]=[N-] has a documented composite z-score of 0.519

composite z-score reported for this compound COCCCNC(=O)[C@@]1(c2ccc([N+](=O)[O-])cc2)CC(=O)N(CC23CC4CC(CC(C4)C2)C3)[C@@H]1c1ccc(CO)cc1 : 0.431

Summary for this compound, CCCCC=C[C@@H](NC(=O)c1ccc(C(=O)OC)cc1)c1ccccc1 : composite z-score is -0.543

====

biological target: Streptavidin (Streptomyces avidinii) (UniProt P22629); assay: streptavidin binders on small-molecule microarray, primary screen, artefact control for SMM compound annotation, biophysical, 635/667 nm fluorescence (AID 1147); details: streptavidin binding, higher = more signal;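 further: signal reflects streptavidin binding to arrayed compounds as a control protein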
Sequence (P22629 whole entry, looked up): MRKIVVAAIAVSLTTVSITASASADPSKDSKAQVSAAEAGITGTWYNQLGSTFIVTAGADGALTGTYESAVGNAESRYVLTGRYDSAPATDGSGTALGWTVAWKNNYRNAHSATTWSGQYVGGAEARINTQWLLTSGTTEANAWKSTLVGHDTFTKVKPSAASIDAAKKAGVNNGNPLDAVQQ
# composite z-score listing for each entry below
// no unit string in output, number only

CC(=O)Nc1cc(Br)ccc1C(=O)O : 0.254
COc1cccc(C(=O)O[C@H]2CC[C@]3(C)C4=C(CCC3C2(C)C)[C@]2(C)CC[C@H]([C@H](C)CCCC(C)C)[C@@]2(C)CC4)c1 (some centres not stated) : 0.184
Cc1ccc(S[C@]2(C(=O)NCc3ccccc3)CC(=O)N(Cc3ccccc3Cl)[C@@H]2c2ccc(CO)cc2I)cc1 : -0.15

# composite z-score of COC(=O)[C@@]1(Cc2ccccc2)N=C(c2ccc(OCCCO)cc2)O[C@H]1c1ccccc1N=[N+]=[N-] = -1.09

Entry N[C@@H](Cc1ccccc1)Cn1cc(-c2ccccc2)nn1 ; composite z-score = 0.861

So, COCCOC(=O)N1C(=O)[C@@]2(c3cc(C#CC4=CCCCC4)ccc31)[C@H](C(=O)NC[C@H](O)c1ccccc1)[C@H]1C(=O)O[C@H](c3ccccc3)[C@H](c3ccccc3)N1[C@@H]2c1ccc(O)cc1 ? Its composite z-score was 1

composite z-score measured on COC(=O)[C@@]1(Cc2ccccc2)[C@H]2c3cc(C(=O)N4CCCC4)n(C)c3C[C@H]2CN1C(=O)c1ccccc1 = 1.64

Given item C=C[C@H](C)[C@@H](O)c1ccc(O)c2ccccc12 , the value recorded as its composite z-score is -0.785

Input CC(C)C[C@@H]1NC(=O)[C@@H]2C[C@H](C(=O)NCCCCCC[N+](C)(C)C)[C@H](c3ccc(O)cc3)N2C1=O . Output composite z-score: 0.313

====

molecular target: Streptavidin (Streptomyces avidinii) (UniProt P22629); assay: streptavidin binders on small-molecule microarray, primary screen, artefact control for SMM compound annotation, biophysical, 635/667 nm fluorescence (AID 1147); conditions: streptavidin binding, higher = more signal;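 further: signal reflects streptavidin binding to arrayed compounds as a control protein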
property: composite z-score
// print number alone

COc1ccc([Si](C)(C)[C@H]2[C@H](CC(=O)N(CCO)Cc3ccccc3)O[C@@]3(C(=O)N(Cc4cccc(N5CCC5=O)c4)c4ccccc43)[C@@H]2C)cc1 : 0.0587
CC(C)C(=C=CC[C@@H](O)c1ccccc1OCCO)C[C@@H](O)c1ccccn1 : -0.0132
COc1ccc(C#Cc2ccc3c(c2)[C@]2(C(=O)N3)[C@H](c3ccc(O)cc3)N3[C@H](c4ccccc4)[C@H](c4ccccc4)OC(=O)[C@H]3[C@@H]2C(=O)N2CCCCCCC2)cc1 : 1.9
COC(=O)[C@@]1(Cc2ccc(F)cc2)[C@H]2c3cc(C(=O)N(C)C)n(CCc4ccccn4)c3C[C@H]2CN1C(=O)c1ccccc1 : -0.0936
CCCCC(CC)C(O)C1C=CC2C(=O)N(c3ccccc3)C(=O)C2N1Nc1ccccc1 (configuration not stated) : 0.948

// recorded composite z-score for C=C[C@H](COC(C)=O)N(Cc1ccc(OC(C)=O)c(OC)c1)S(=O)(=O)c1ccc(Br)cc1 : 1.12

Record summary for O=C1c2ccccc2[C@@]2(Cc3ccccc3N(Cc3ccccc3)C2=O)[C@H](c2ccc(CO)cc2)N1C1CCCCC1 : reported composite z-score = -0.258

====

experiment: binders of probe aFST on microarray, primary screen, stem cell growth factor project, biochemical, small-molecule microarray, fluorescence 635/667 (AID 1086); settings: higher = more signal;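 further: score merges 667 nm fluorescence with signal-to-noise of each printed compound spot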
property: composite z-score
// print number alone

The recorded composite z-score for CC(C)(C)OC(=O)CC[C@]1(C(=O)N2CCCCC2)N=C(c2ccc(OCCCO)cc2)O[C@H]1c1ccccc1N=[N+]=[N-] is 1.24

Given item CCOC(=O)C1=C[C@@H](C(C)C)N(S(=O)(=O)c2ccc(C)cc2)[C@H]1c1ccc(C(C)C)cc1 , the value recorded as its composite z-score is 0.937

Record CN(C)C(=O)[C@@]1(CCC(=O)OC(C)(C)C)N=C(c2ccc(OCCCO)cc2)O[C@H]1c1ccccc1 , field composite z-score: 0.356

Entry CCC[C@@H]1C=C(C(=O)O)[C@H](c2ccc(C)cc2)N1S(=O)(=O)c1ccc(C)cc1 — recorded composite z-score = 0.648

All figures here come from PubChem BioAssay.
